- test description: MTT cytotoxicity assay, MRC-5
- test context: human, MRC-5 normal lung cells
property measured: IC50 at 48 h

So, c1ccc(-c2ccccn2)nc1 [Bipy, 2,2′-bipyridine] ? Its IC50 at 48 h was > 100 µM

* * *

- Test system: A2780 (ovarian) cancer cells
- test description: MTT cytotoxicity assay, A2780
- test context: read-out: In Vitro Cytotoxicity IC50, A2780; MTT, 48 h treatment
property measured: pIC50
Notebook: values listed as pIC50 are -log10 of the concentration (mol/L).

[
  {
    "molecule": "[Cl][Ru-4]12([Cl])([n+]3ccccc3-c3cccc[n+]31)[P+](c1ccccc1)(c1ccccc1)CCC[P+]2(c1ccccc1)c1ccccc1 [[RuCl2(bipy)(dppp)], cis-[RuCl2(bipy)(dppp)]]",
    "property measured": "pIC50",
    "observed measurement": 4.55
  }
]

// recorded pIC50 for FC(F)(F)c1cccc(Nc2ccccc2C2=[O+][Ru-4]34([O]2)([n+]2ccccc2-c2cccc[n+]23)[P+](c2ccccc2)(c2ccccc2)CCC[P+]4(c2ccccc2)c2ccccc2)c1.F[P-](F)(F)(F)(F)F [complex 4, [Ru(FFen)(bipy)(dppp)]PF6] : 5.67

Form: molecule = Cc1c(Cl)cccc1Nc1ccccc1C1=[O+][Ru-4]23([O]1)([n+]1ccccc1-c1cccc[n+]12)[P+](c1ccccc1)(c1ccccc1)CCC[P+]3(c1ccccc1)c1ccccc1.F[P-](F)(F)(F)(F)F [complex 3, [Ru(TFen)(bipy)(dppp)]PF6] ; pIC50 = 5.65

* * *

- Tested on: A2780 (ovarian) cancer cells
- test description: MTT cytotoxicity assay, A2780
- test context: read-out: In Vitro Cytotoxicity IC50, A2780; MTT, 48 h treatment
The following compounds are listed with their measured pIC50 values.
Value format note: pIC50 is -log10 of concentration (mol/L); just state the number.

[
  {
    "compound": "Cc1cccc(Nc2ccccc2C2=[O+][Ru-4]34([O]2)([n+]2ccccc2-c2cccc[n+]23)[P+](c2ccccc2)(c2ccccc2)CCC[P+]4(c2ccccc2)c2ccccc2)c1C.F[P-](F)(F)(F)(F)F [complex 2, [Ru(MFen)(bipy)(dppp)]PF6]",
    "pIC50": 6.04
  }
]

Kindly consider the entry below.
Just so you know, measured pIC50 for F[P-](F)(F)(F)(F)F.c1ccc(Nc2ccccc2C2=[O+][Ru-4]34([O]2)([n+]2ccccc2-c2cccc[n+]23)[P+](c2ccccc2)(c2ccccc2)CCC[P+]4(c2ccccc2)c2ccccc2)cc1 [complex 1, [Ru(Fen)(bipy)(dppp)]PF6] came out at 6.18

* * *

- test description: MTT cytotoxicity assay, MRC-5
- test context: human
property measured: IC50 at 48 h

# example entries with known answers
[
  {
    "molecule": "Cc1cccc(Nc2ccccc2C(=O)O)c1C [HMFe, mefenamic acid]",
    "IC50 at 48 h": "> 100 µM"
  },
  {
    "molecule": "O=C(O)c1ccccc1Nc1ccccc1 [HFe, fenamic acid]",
    "IC50 at 48 h": "> 100 µM"
  }
]

Consider now this further molecule.
The recorded IC50 at 48 h for entry Cc1c(Cl)cccc1Nc1ccccc1C(=O)O [HMTFe, tolfenamic acid] equals > 100 µM

* * *

- System: A2780cis (ovarian cisplatin-resistant) cancer cells
- test description: MTT cytotoxicity assay, A2780cis
- test context: read-out: In Vitro Cytotoxicity IC50, A2780cis; MTT, 48 h treatment
property measured: pIC50
Quick note: pIC50 means taking -log10 of the concentration in moles per liter.

These recorded examples may help you get a feel for the data.
[
  {
    "compound": "F[P-](F)(F)(F)(F)F.c1ccc(Nc2ccccc2C2=[O+][Ru-4]34([O]2)([n+]2ccccc2-c2cccc[n+]23)[P+](c2ccccc2)(c2ccccc2)CCC[P+]4(c2ccccc2)c2ccccc2)cc1 [complex 1, [Ru(Fen)(bipy)(dppp)]PF6]",
    "property measured": "pIC50",
    "observed measurement": 6.02
  },
  {
    "compound": "Cc1c(Cl)cccc1Nc1ccccc1C1=[O+][Ru-4]23([O]1)([n+]1ccccc1-c1cccc[n+]12)[P+](c1ccccc1)(c1ccccc1)CCC[P+]3(c1ccccc1)c1ccccc1.F[P-](F)(F)(F)(F)F [complex 3, [Ru(TFen)(bipy)(dppp)]PF6]",
    "property measured": "pIC50",
    "observed measurement": 5.57
  },
  {
    "compound": "Cc1cccc(Nc2ccccc2C2=[O+][Ru-4]34([O]2)([n+]2ccccc2-c2cccc[n+]23)[P+](c2ccccc2)(c2ccccc2)CCC[P+]4(c2ccccc2)c2ccccc2)c1C.F[P-](F)(F)(F)(F)F [complex 2, [Ru(MFen)(bipy)(dppp)]PF6]",
    "property measured": "pIC50",
    "observed measurement": 5.95
  },
  {
    "compound": "[Cl][Ru-4]12([Cl])([n+]3ccccc3-c3cccc[n+]31)[P+](c1ccccc1)(c1ccccc1)CCC[P+]2(c1ccccc1)c1ccccc1 [[RuCl2(bipy)(dppp)], cis-[RuCl2(bipy)(dppp)]]",
    "property measured": "pIC50",
    "observed measurement": 4.45
  }
]

Kindly review the next compound as well.
Kindly note: A2780cis (ovarian cisplatin-resistant) cancer cells, FC(F)(F)c1cccc(Nc2ccccc2C2=[O+][Ru-4]34([O]2)([n+]2ccccc2-c2cccc[n+]23)[P+](c2ccccc2)(c2ccccc2)CCC[P+]4(c2ccccc2)c2ccccc2)c1.F[P-](F)(F)(F)(F)F [complex 4, [Ru(FFen)(bipy)(dppp)]PF6] , pIC50 value reported: 5.37
